test system: 186277-243-T-J2-PDC complex spheroid viability; assay: Anticancer human tumor 186277-243-T-J2-PDC patient-derived colon adenocarcinoma cell line growth inhibition [POLQ]; settings: second compound 3.16 µM; first compound 10 µM; stronger effect = lower value
Measured property: viability, T/C (%)

Compound	Measured property	Observed result
CCc1cc2c(N3CCc4c(cc(Cn5ccnc5)cc4-c4cn(C)nc4C(F)(F)F)C3=O)cc(C)nc2c(OC)n1 + Nc1ccc(C#CCN(C(=O)Cc2ncc(C(F)(F)F)cc2C(F)(F)F)c2ccc(F)cc2)nn1	viability, T/C	87.3
COc1ccc([C@@H](O)c2cc(-c3ncnc4cc(N5CCOCC5)ccc34)c(F)cc2Cl)nn1 + COC1C(OC(N)=O)C(O)C(Oc2ccc3c(O)c(NC(=O)c4ccc(O)c(CC=C(C)C)c4)c(=O)oc3c2C)OC1(C)C	viability, T/C	26.1
CCCS(=O)(=O)Nc1ccc(F)c(C(=O)c2c[nH]c3ncc(-c4ccc(Cl)cc4)cc23)c1F + Cc1cccc(N(C)C(=O)C2C(O)CCN2c2nc(C)cc(C(F)(F)F)c2C#N)c1	viability, T/C	56.9

----------
# viability, T/C per record follows
test system: 186277-243-T-J2-PDC complex spheroid viability; experiment: Anticancer human tumor 186277-243-T-J2-PDC cell line growth inhibition [POLQ]; settings: second compound 0.1 µM; first compound 1 µM; stronger effect = lower value;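 note: spheroids exposed to compounds for seven days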;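 for viability, T/C: 100% = DMSO vehicle control viability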
Measured property: viability, T/C (%)

Compound	Measured property	Unit name	Observed result
CCc1cc2c(N3CCc4c(cc(Cn5ccnc5)cc4-c4cn(C)nc4C(F)(F)F)C3=O)cc(C)nc2c(OC)n1 + COC1C(OC(N)=O)C(O)C(Oc2ccc3c(O)c(NC(=O)c4ccc(O)c(CC=C(C)C)c4)c(=O)oc3c2C)OC1(C)C	viability, T/C	%	96.9
O=C(Nc1ccc(O)c(NS(=O)(=O)c2ccc(F)cc2)c1)c1ccc(-c2ccccc2)cc1 + Cc1cccc(N(C)C(=O)C2C(O)CCN2c2nc(C)cc(C(F)(F)F)c2C#N)c1	viability, T/C	%	88.9
COc1cccc(OCCCN)c1-c1cc(Nc2cnc(C#N)cn2)n[nH]1 + Cc1cccc(N(C)C(=O)C2C(O)CCN2c2nc(C)cc(C(F)(F)F)c2C#N)c1	viability, T/C	%	9.26

----------
tested on: 186277-243-T-J2-PDC complex spheroid viability; experiment: Anticancer human tumor 186277-243-T-J2-PDC cell line growth inhibition [POLQ]; conditions: curve of first compound; second compound 1 µM;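 note: spheroids exposed to compounds for seven days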
pIC50: −log10 of the molar value.
# pIC50 per record follows

Compound	Bound sign	pIC50
COc1ccc([C@@H](O)c2cc(-c3ncnc4cc(N5CCOCC5)ccc34)c(F)cc2Cl)nn1 + Cc1cccc(N(C)C(=O)C2C(O)CCN2c2nc(C)cc(C(F)(F)F)c2C#N)c1	=	5.19
C#Cc1c(F)ccc2cc(O)cc(-c3ncc4c(N5CC6CCC(C5)N6)nc(OCC56CCCN5CC(F)C6)nc4c3F)c12 (stereo not given) + Cc1cccc(N(C)C(=O)C2C(O)CCN2c2nc(C)cc(C(F)(F)F)c2C#N)c1	=	7.07
CCc1cc2c(N3CCc4c(cc(Cn5ccnc5)cc4-c4cn(C)nc4C(F)(F)F)C3=O)cc(C)nc2c(OC)n1 + Cc1cccc(N(C)C(=O)C2C(O)CCN2c2nc(C)cc(C(F)(F)F)c2C#N)c1	<	5.00
O=C(Nc1ccc(O)c(NS(=O)(=O)c2ccc(F)cc2)c1)c1ccc(-c2ccccc2)cc1 + Nc1ccc(C#CCN(C(=O)Cc2ncc(C(F)(F)F)cc2C(F)(F)F)c2ccc(F)cc2)nn1	<	5.00
COc1cccc(OCCCN)c1-c1cc(Nc2cnc(C#N)cn2)n[nH]1 + Nc1ccc(C#CCN(C(=O)Cc2ncc(C(F)(F)F)cc2C(F)(F)F)c2ccc(F)cc2)nn1	>	8.50
